target: ROCK1 (Homo sapiens (Human)); assay: Z-lyte FRET assay to measure kinase inhibition, ROCK1; type: biochemical; settings: read-out: ROCK1 % inhibition @ 50 μM, 50 μM compound
Sequence (Q13464 whole entry): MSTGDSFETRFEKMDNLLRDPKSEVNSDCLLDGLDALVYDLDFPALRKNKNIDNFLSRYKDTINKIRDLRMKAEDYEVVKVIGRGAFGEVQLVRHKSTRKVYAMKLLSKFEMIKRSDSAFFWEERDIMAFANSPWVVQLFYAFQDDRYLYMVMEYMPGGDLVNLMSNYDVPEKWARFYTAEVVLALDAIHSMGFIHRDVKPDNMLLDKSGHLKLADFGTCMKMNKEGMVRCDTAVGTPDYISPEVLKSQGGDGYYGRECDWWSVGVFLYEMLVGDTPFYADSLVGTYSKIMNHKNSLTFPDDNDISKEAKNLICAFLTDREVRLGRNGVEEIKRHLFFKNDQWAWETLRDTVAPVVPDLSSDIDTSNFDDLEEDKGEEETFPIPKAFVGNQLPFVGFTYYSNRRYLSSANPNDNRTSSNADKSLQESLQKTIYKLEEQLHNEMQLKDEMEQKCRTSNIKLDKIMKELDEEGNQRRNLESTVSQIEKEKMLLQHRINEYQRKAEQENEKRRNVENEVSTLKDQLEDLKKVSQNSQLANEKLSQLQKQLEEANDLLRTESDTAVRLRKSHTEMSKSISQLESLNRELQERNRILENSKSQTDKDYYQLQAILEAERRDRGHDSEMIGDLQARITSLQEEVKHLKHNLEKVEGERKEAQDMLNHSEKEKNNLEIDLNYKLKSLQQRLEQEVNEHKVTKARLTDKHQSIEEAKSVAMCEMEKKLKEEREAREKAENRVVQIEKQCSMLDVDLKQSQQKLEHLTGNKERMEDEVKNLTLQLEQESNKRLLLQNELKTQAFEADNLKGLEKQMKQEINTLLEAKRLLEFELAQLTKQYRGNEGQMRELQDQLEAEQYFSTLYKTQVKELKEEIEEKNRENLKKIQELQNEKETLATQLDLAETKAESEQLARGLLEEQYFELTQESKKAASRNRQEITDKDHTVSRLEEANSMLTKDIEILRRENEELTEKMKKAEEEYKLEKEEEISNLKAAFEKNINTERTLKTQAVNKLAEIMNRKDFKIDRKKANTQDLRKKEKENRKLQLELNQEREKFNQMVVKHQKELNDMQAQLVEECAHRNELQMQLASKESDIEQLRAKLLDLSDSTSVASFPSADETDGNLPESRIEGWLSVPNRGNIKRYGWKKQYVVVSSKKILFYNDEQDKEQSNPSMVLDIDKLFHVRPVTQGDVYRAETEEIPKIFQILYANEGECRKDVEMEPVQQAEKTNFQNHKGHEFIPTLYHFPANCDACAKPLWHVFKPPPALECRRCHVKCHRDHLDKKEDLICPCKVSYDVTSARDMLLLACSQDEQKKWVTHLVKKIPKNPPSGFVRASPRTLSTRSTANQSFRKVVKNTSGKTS
Reported Property: inhibition at 50 µM (%)
Answer format: numeric, % implied, no suffix.

Query :: Fill blank: measured inhibition at 50 µM of the compound CS(=O)(=O)c1ccc2c(c1)CCN2c1ccnc(N)n1 is ____.
Result :: 49

Query :: Fill blank: measured inhibition at 50 µM of the compound Nc1nccc(-n2cnc3ccccc32)n1 is ____.
Result :: 50

Query :: Fill blank: measured inhibition at 50 µM of the compound Nc1nccc(N2CCc3ccc([N+](=O)[O-])cc32)n1 is ____.
Result :: 51

---

Assign IC50 to each entry below.
target: ROCK2 (Homo sapiens (Human), UniProt O75116); test: Z-lyte FRET assay to measure kinase inhibition, ROCK2; format: biochemical
Sequence (O75116 whole entry, species assumed): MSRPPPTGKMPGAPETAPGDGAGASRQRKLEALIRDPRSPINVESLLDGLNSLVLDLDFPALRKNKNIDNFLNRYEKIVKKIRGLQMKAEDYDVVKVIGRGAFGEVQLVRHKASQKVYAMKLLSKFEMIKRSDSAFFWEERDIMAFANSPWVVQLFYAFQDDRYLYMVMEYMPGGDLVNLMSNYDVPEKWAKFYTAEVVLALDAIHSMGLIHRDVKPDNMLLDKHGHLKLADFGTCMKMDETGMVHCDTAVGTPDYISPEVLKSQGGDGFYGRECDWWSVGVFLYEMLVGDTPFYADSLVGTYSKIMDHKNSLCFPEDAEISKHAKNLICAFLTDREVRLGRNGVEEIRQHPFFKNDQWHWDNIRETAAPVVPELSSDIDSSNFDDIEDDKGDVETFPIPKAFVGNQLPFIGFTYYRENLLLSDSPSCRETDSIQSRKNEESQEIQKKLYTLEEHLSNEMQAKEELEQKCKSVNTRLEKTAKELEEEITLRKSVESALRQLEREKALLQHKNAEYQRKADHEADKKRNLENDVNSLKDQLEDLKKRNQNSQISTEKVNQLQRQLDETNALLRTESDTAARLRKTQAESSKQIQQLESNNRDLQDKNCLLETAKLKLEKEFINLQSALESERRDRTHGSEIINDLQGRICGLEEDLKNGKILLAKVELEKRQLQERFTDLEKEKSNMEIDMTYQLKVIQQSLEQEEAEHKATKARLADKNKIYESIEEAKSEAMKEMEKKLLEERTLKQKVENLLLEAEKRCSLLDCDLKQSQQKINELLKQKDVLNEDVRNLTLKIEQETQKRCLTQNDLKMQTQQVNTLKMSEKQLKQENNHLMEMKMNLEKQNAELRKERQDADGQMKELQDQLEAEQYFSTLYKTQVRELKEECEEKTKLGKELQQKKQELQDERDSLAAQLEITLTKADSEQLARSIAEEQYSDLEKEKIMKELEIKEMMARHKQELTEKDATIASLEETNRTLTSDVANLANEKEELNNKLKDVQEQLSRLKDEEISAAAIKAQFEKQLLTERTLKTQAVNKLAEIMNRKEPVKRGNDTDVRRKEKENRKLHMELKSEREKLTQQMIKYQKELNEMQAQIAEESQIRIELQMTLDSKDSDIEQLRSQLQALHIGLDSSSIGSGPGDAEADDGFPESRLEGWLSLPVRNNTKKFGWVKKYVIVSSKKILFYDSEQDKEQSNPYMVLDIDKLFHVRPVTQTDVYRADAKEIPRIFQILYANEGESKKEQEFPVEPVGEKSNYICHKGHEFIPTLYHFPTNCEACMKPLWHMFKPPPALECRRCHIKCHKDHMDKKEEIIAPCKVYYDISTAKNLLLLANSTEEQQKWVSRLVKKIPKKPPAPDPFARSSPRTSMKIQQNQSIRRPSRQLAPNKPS
Show the value, then the unit it is measured in.

Query :: Fill blank: measured IC50 of the compound CS(=O)(=O)c1cccc(Nc2ccnc(N)n2)c1 is ____.
Result :: 7.3 µM

Query :: Fill blank: measured IC50 of the compound CC(NC(=O)c1cccc2c1ccn2-c1ccnc(N)n1)c1ccccc1 (stereo not drawn) [drawing 177] is ____.
Result :: 0.21 µM

Query :: Fill blank: measured IC50 of the compound Nc1nccc(Nc2ccc(S(N)(=O)=O)cc2)n1 [drawing 83] is ____.
Result :: 25.5 µM

# credit: patent US9616064B2
